assay: Oral bioavailability in rat at 10 mg/kg as single dose; type: ADME, organism-based; settings: in vivo
# bioavailability per entry
# output: bare number, implied unit %

Lab book: bioavailability of "CC(C)N1CCC(C(=O)Nc2cc(Oc3ccc4c(c3)nc(Nc3cc(C(F)(F)F)ccc3F)n4C)ccn2)CC1" noted as 54

The compound listed as "CC(C)N1CCC(C(=O)Nc2cc(Oc3ccc4c(c3)nc(Nc3cccc(C(C)(C)C)c3)n4C)ccn2)CC1" has a reported bioavailability of 15

The recorded bioavailability for "CCN1CCN(CC(=O)Nc2cc(Oc3ccc4c(c3)nc(Nc3cc(C(F)(F)F)ccc3F)n4C)ccn2)CC1" is 40

* * *

biological target: Platelet-derived growth factor receptor (Homo sapiens, UniProt P09619+P16234); experiment: Inhibition of PDGFR (unknown origin)
pIC50: −log10 of the molar value.
READOUT KIND: pIC50

The compound identified as "CCN1CCN(CC(=O)Nc2cc(Oc3ccc4c(c3)nc(Nc3cc(C(F)(F)F)ccc3F)n4C)ccn2)CC1" registered its pIC50 at > 8.00

* * *

assay: Clearance in rat at 10 mg/kg, po as single dose; type: ADME, organism-based; set-up: dose 10 mg/kg, route oral; details: in vivo
READOUT KIND: CL/F (mL/min/kg)
Write down the numeric answer in mL/min/kg and omit the unit.

Item: "CC(C)N1CCC(C(=O)Nc2cc(Oc3ccc4c(c3)nc(Nc3cccc(C(C)(C)C)c3)n4C)ccn2)CC1" | CL/F: 90

Measured CL/F, "CCN1CCN(CC(=O)Nc2cc(Oc3ccc4c(c3)nc(Nc3cc(C(F)(F)F)ccc3F)n4C)ccn2)CC1" : 32

Data point: "CC(C)N1CCC(C(=O)Nc2cc(Oc3ccc4c(c3)nc(Nc3cc(C(F)(F)F)ccc3F)n4C)ccn2)CC1" ; CL/F = 49

* * *

Items are presented alongside their recorded IC50.
biological target: Serine/threonine-protein kinase B-raf (Homo sapiens, UniProt P15056, V600E); test: Inhibition of BRAF V600E mutant (unknown origin)
Sequence (P15056 2-766 V600E limits assumed): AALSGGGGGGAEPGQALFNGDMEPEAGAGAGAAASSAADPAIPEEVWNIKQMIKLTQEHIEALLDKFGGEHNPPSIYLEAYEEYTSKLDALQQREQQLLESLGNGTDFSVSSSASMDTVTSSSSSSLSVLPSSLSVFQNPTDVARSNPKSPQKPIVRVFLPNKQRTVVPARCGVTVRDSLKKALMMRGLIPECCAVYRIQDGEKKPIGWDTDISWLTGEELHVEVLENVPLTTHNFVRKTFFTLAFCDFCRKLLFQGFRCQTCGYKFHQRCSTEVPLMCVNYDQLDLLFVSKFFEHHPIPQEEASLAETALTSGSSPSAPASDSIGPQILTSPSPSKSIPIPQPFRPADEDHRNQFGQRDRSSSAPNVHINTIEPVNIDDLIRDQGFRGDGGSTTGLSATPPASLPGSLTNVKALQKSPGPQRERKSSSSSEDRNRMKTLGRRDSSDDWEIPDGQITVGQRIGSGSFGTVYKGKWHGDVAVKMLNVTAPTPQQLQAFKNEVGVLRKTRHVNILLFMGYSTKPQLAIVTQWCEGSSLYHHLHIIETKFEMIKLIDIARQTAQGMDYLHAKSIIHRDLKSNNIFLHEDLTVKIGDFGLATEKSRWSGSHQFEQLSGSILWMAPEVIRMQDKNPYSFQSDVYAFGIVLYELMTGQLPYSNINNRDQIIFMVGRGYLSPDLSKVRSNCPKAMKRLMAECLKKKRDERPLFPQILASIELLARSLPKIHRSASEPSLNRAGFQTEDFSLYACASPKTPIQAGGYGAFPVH
Entry rule: numbers only, all in nM.

Recorded results for 3 compounds are shown here.
| ENTRY SMILES | ASSAY TARGET | UNITS OF MEASURE | IC50 |
| --- | --- | --- | --- |
| CC(=O)Nc1cc(Oc2ccc3c(c2)nc(Nc2cccc(OC(F)(F)F)c2)n3C)ccn1 | Serine/threonine-protein kinase B-raf (Homo sapiens, UniProt P15056, V600E) | nM | 0.4 |
| Cn1c(Nc2cccc(C(C)(C)C)c2)nc2cc(Oc3ccnc(NC(=O)C4CCNCC4)c3)ccc21 | Serine/threonine-protein kinase B-raf (Homo sapiens, UniProt P15056, V600E) | nM | 7 |
| CCc1ccc(Nc2nc3cc(Oc4ccnc(NC(C)=O)c4)ccc3n2C)cc1 | Serine/threonine-protein kinase B-raf (Homo sapiens, UniProt P15056, V600E) | nM | 1 |

Now turn to the next compound.
Briefly, IC50 measured for "CC(=O)Nc1cc(Oc2ccc3c(c2)nc(Nc2cc(C(F)(F)F)ccc2F)n3C)ccn1" : 1

* * *

biological target: Serine/threonine-protein kinase B-raf (Homo sapiens, UniProt P15056); experiment: Inhibition of BRAF (unknown origin)-mediated ERK phosphorylation by cell-based assay
Sequence (P15056 whole entry): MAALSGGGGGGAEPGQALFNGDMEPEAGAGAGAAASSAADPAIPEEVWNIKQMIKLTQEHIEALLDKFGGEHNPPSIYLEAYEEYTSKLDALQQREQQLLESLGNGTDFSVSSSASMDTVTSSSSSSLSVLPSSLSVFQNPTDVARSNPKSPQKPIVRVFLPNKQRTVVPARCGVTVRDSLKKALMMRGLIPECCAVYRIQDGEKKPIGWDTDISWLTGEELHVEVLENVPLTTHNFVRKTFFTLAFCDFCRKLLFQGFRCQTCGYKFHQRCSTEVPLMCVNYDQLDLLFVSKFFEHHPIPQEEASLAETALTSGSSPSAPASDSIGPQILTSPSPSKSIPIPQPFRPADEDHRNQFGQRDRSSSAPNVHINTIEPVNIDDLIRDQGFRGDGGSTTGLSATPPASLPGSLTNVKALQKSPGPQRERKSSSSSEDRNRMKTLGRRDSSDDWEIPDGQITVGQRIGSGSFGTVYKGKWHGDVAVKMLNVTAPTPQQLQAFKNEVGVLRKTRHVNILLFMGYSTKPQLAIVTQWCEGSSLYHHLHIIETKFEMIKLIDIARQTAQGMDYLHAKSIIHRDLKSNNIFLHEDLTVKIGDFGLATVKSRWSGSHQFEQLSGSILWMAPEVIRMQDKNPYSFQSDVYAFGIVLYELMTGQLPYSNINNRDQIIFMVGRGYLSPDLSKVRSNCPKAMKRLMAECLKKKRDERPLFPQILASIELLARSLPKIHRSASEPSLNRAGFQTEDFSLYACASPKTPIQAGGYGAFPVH
READOUT KIND: pEC50
In plain terms, pEC50 is the concentration in mol/L turned into minus its base-10 logarithm.

Worked examples follow.
| ENTRY SMILES | pEC50 |
| --- | --- |
| CCN1CCN(CC(=O)Nc2cc(Oc3ccc4c(c3)nc(Nc3cc(C(F)(F)F)ccc3F)n4C)ccn2)CC1 | 7.00 |
| CCc1cccc(Nc2nc3cc(Oc4ccnc(NC(C)=O)c4)ccc3n2C)c1 | 7.00 |
| CC(C)N1CCN(CC(=O)Nc2cc(Oc3ccc4c(c3)nc(Nc3cc(C(F)(F)F)ccc3F)n4C)ccn2)CC1 | 7.00 |
| Cn1c(Nc2cccc(C(C)(C)C)c2)nc2cc(Oc3ccnc(NC(=O)C4CCNCC4)c3)ccc21 | 7.00 |
| CN1CCC(C(=O)Nc2cc(Oc3ccc4c(c3)nc(Nc3cccc(C(C)(C)C)c3)n4C)ccn2)CC1 | 7.00 |
| CC(=O)Nc1cc(Oc2ccc3c(c2)nc(Nc2cccc(C(C)(C)C)c2)n3C)ccn1 | 7.40 |
| CC(=O)Nc1cc(Oc2ccc3c(c2)nc(Nc2cc(C(F)(F)F)ccc2F)n3C)ccn1 | 7.05 |
| CC(=O)Nc1cc(Oc2ccc3c(c2)nc(Nc2ccc(C(C)(C)C)cc2)n3C)ccn1 | 7.30 |

"CC(C)N1CCC(C(=O)Nc2cc(Oc3ccc4c(c3)nc(Nc3cc(C(F)(F)F)ccc3F)n4C)ccn2)CC1" yielded pEC50 of 7.00

Reported pEC50 for "CCc1ccc(Nc2nc3cc(Oc4ccnc(NC(C)=O)c4)ccc3n2C)cc1" was 7.10

# pEC50 of "CC(=O)Nc1cc(Oc2ccc3c(c2)nc(Nc2ccc(OC(F)(F)F)cc2)n3C)ccn1" = 7.00

For "CC(=O)Nc1cc(Oc2ccc3c(c2)nc(Nc2ccc(C(F)(F)F)cc2)n3C)ccn1" the molecule record lists pEC50 as 7.30

* * *

assay: Stability in mouse plasma assessed as compound remaining at 1 uM at 37 degC after 45 mins; format: ADME, cell-free; conditions: read-out: Stability
READOUT KIND: remaining at 0.75 h, 1 µM (%)
The response must be a number in % with no trailing unit.

| ENTRY SMILES | READOUT KIND | RESULT |
| --- | --- | --- |
| CCN1CCN(CC(=O)Nc2cc(Oc3ccc4c(c3)nc(Nc3cc(C(F)(F)F)ccc3F)n4C)ccn2)CC1 | remaining at 0.75 h, 1 µM | 1 |

// next item, remaining at 0.75 h, 1 µM requested
For "CC(=O)Nc1cc(Oc2ccc3c(c2)nc(Nc2ccc(C(F)(F)F)cc2)n3C)ccn1" the compound record lists remaining at 0.75 h, 1 µM as 100

* * *

target: Serine/threonine-protein kinase B-raf (Homo sapiens, UniProt P15056); experiment: Inhibition of BRAF (unknown origin)-mediated ERK phosphorylation by cell-based assay
READOUT KIND: EC50 (nM)
Give a bare numeral; the unit nM is implied.

In the examples that follow, each entry is paired with its recorded EC50.
| ENTRY SMILES | READOUT KIND | RESULT |
| --- | --- | --- |
| CC(=O)Nc1cc(Oc2ccc3c(c2)nc(Nc2cccc(C(F)(F)F)c2)n3C)ccn1 | EC50 | 400 |
| CC(=O)Nc1cc(Oc2ccc3c(c2)nc(Nc2ccc(C(C)C)cc2)n3C)ccn1 | EC50 | 90 |
| CC(=O)Nc1cc(Oc2ccc3c(c2)nc(Nc2cccc(C(C)C)c2)n3C)ccn1 | EC50 | 50 |
| CC(C)N1CCC(C(=O)Nc2cc(Oc3ccc4c(c3)nc(Nc3cccc(C(C)(C)C)c3)n4C)ccn2)CC1 | EC50 | 100 |

Here's the next entry for you.
Record "CC(=O)Nc1cc(Oc2ccc3c(c2)nc(Nc2cccc(OC(F)(F)F)c2)n3C)ccn1" . Reported EC50: 100

* * *

experiment: Half life in rat at 10 mg/kg, po as single dose; assay type: ADME, organism-based; parameters: dose 10 mg/kg, route oral; conditions: in vivo
READOUT KIND: half-life (h)
Number in h, nothing else.

| ENTRY SMILES | UNITS OF MEASURE | half-life |
| --- | --- | --- |
| CCN1CCN(CC(=O)Nc2cc(Oc3ccc4c(c3)nc(Nc3cc(C(F)(F)F)ccc3F)n4C)ccn2)CC1 | h | 5.67 |

// moving on: another record for half-life
Just so you know, measured half-life for "CC(C)N1CCC(C(=O)Nc2cc(Oc3ccc4c(c3)nc(Nc3cccc(C(C)(C)C)c3)n4C)ccn2)CC1" came out at 4.18

* * *

# IC50 listing for each entry below
target: Serine/threonine-protein kinase B-raf (Homo sapiens, UniProt P15056, V600E); experiment: Inhibition of BRAF V600E mutant (unknown origin)
Field: numeric (nM). Do not append units.

Sample records with IC50:
| ENTRY SMILES | IC50 (nM) |
| --- | --- |
| CC(=O)Nc1cc(Oc2ccc3c(c2)nc(Nc2ccc(C(C)C)cc2)n3C)ccn1 | 4 |
| CC(C)N1CCN(CC(=O)Nc2cc(Oc3ccc4c(c3)nc(Nc3cc(C(F)(F)F)ccc3F)n4C)ccn2)CC1 | 6 |

Record "CCN1CCN(CC(=O)Nc2cc(Oc3ccc4c(c3)nc(Nc3cc(C(F)(F)F)ccc3F)n4C)ccn2)CC1" . Reported IC50: 6

Lookup result for "CC(=O)Nc1cc(Oc2ccc3c(c2)nc(Nc2cccc(C(C)(C)C)c2)n3C)ccn1" ; measured IC50: 3

Entry "CC(C)N1CCC(C(=O)Nc2cc(Oc3ccc4c(c3)nc(Nc3cc(C(F)(F)F)ccc3F)n4C)ccn2)CC1" ; IC50 = 2

Please fill in: IC50 reported for "CC(C)N1CCC(C(=O)Nc2cc(Oc3ccc4c(c3)nc(Nc3cccc(C(C)(C)C)c3)n4C)ccn2)CC1" = 20

# compound "CC(=O)Nc1cc(Oc2ccc3c(c2)nc(Nc2ccc(C(F)(F)F)cc2)n3C)ccn1" ; its IC50 = 4

The reported value for "CC(=O)Nc1cc(Oc2ccc3c(c2)nc(Nc2cccc(C(F)(F)F)c2)n3C)ccn1" in terms of IC50 is 3
